# maps each entry to its duplex melting temperature
- experiment-summary: duplex melting temperature (HRM, EvaGreen); higher = more stable duplex
- condition-notes: duplex concentration 7.5 µM; backbone: PS-PS (both strands fully phosphorothioate)
readout: duplex melting temperature (°C)

CGTGCAGCACTACTTG ... 57.1
GCTGAACTAACCACCA ... 53.7
ACTGTATCGCCCTA ... 51.8
CAAGCCTCGATTTTGT ... 53.6
CGCGCGAGTATTTATAACCT ... 57.7
GGTTGCGGTGGCCAAC ... 53.1
CAAACTTAGTAATCACGCCCAGCAACCA ... 66.7
GCAGGAGCCGCGACCTG ... 68.3
CTTTTGTGCGGGTAGC ... 56.4
